Target: T1, human GIP receptor (human, UniProt P48546 22-466)
T1 sequence (looked up): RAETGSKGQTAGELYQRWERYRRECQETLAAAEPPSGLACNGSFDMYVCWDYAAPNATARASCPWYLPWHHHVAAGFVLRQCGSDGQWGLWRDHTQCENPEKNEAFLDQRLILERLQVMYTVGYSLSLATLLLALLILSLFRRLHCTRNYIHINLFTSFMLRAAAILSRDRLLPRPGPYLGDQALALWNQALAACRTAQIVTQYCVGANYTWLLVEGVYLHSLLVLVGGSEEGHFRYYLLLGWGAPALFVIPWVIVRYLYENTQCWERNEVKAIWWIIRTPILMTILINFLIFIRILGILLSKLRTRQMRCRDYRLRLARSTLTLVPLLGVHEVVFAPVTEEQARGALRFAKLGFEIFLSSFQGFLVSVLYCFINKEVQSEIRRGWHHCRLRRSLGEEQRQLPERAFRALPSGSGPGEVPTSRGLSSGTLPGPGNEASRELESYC
Assay: cell-based or functional assay
Square brackets hold non-standard residues; d marks the D form. Side chains are listed from the residue outwards. Ends that are not written are not given here. * marks the point of attachment. C20 diacid = O=C(O)CCCCCCCCCCCCCCCCCCC(=O)*; αMeF = C[C@](N)(Cc1ccccc1)C(=O)O; αMeK = C[C@](N)(CCCCN)C(=O)O; Dab = NCC[C@H](N)C(=O)O; AEEA = NCCOCCOCC(=O)O; Aib = CC(C)(N)C(=O)O
Lab note: compare hGIPR cAMP EC50 ratio with 0.8, writing criterion met if less and criterion not met if equal or more.

- binder: "YXEGTFTSDYSILLDKKAQXAXIEYLIEGGPSSGAPPPS (Aib2; K17((2-[2-(2-Amino-ethoxy)-ethoxy]-acetyl)2-(γ-Glu)-CO-(CH2)18-CO2H); Aib20; αMeF22; C-terminal NH2) [Example 67]"
  group.label: "criterion not met"
- binder: "XXEGTFTSDYSILLDKKAQXAFIEYLIEGGPSSGAPPPS (DesTyr1; Aib2; K17((2-[2-(2-Amino-ethoxy)-ethoxy]-acetyl)2-(γ-Glu)-CO-(CH2)18-CO2H); Aib20; C-terminal NH2) [Example 107]"
  group.label: "criterion met"
- binder: "H[Aib]EGTFTSDYSI[αMeF]LDKK([Dab-AEEA-Dab-AEEA-C20 diacid])AQ[αMeK]AFIQYLLA[Aib]GPSSGAPPPS-NH2 [Example 19]"
  group.label: "criterion met"
- binder: "YXEGTFTSDYSIXLDKKAQXAFIEYXIEGGPSSGAPPPS (not fully specified; Aib2; αMeF13 as printed (likely αMeL13); K17((2-[2-(2-Amino-ethoxy)-ethoxy]-acetyl)2-(γ-Glu)-CO-(CH2)18-CO2H); Aib20; αMeF26 as printed (likely αMeL26); C-terminal NH2) [Example 75]"
  group.label: "criterion met"
- binder: "YXXGTFTSDYSILLDKKAQXAFIEYLIEGGPSSGAPPPS (Aib2; γ-Glu3; K17((2-[2-(2-Amino-ethoxy)-ethoxy]-acetyl)2-(γ-Glu)-CO-(CH2)18-CO2H); Aib20; C-terminal NH2) [Example 91]"
  group.label: "criterion met"
- binder: "YXEGTFTSDYXILLDKKAQXAFIEYLIEGGPSSGAPPPS (Aib2; αMeS11; K17((2-[2-(2-Amino-ethoxy)-ethoxy]-acetyl)2-(γ-Glu)-CO-(CH2)18-CO2H); Aib20; C-terminal NH2) [Example 68]"
  group.label: "criterion not met"
- binder: "YXEGTFTSDYSXLLDKKAQXAFIEYLIEGGPSSGAPPPS (Aib2; D-Ile12; K17((2-[2-(2-Amino-ethoxy)-ethoxy]-acetyl)2-(γ-Glu)-CO-(CH2)18-CO2H); Aib20; C-terminal NH2) [Example 82]"
  group.label: "criterion met"
